Kindly state EC50 for each of the entries shown.
target: recombinant WT VCP (Mus musculus, UniProt Q01853); construct: in the full-length recombinant VCP; His (N); made in house; host or cells: Escherichia coli BL21-CodonPlus (DE3)-RIL; assay: Kinase-Glo ATPase assay, recombinant WT VCP; format: biochemical; settings: EC50 (μM) (95% CI), WT VCP without UN; 50 nM VCP, 62.5 μM ATP, 2% DMSO
Sequence (Q01853 whole entry): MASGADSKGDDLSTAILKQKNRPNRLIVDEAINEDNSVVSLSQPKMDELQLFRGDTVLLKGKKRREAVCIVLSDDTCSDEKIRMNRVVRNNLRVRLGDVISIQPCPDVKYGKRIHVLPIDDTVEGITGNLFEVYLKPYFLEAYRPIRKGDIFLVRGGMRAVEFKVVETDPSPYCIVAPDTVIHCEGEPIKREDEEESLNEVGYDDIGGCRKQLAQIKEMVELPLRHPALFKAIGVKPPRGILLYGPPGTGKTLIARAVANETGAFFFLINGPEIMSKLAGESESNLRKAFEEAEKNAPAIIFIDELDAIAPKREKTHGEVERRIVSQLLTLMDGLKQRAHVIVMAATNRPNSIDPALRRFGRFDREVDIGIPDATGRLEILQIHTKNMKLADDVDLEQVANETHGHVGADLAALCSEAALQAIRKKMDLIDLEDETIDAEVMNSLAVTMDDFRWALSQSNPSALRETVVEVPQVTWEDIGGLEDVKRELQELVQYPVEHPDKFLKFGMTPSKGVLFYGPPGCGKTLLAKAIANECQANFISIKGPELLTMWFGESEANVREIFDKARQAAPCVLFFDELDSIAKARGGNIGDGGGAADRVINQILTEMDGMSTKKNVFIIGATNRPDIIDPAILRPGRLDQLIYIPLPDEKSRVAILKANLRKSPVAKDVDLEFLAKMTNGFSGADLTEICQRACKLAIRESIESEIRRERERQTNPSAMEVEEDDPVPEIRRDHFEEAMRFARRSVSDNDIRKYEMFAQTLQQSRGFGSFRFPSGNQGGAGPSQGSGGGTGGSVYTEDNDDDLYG
One number for each entry, in µM.

Hey, quick one: what's EC50 for each of these?
1. COCCNC(=O)NC(=O)COC(=O)c1cc([N+](=O)[O-])ccc1Sc1nc(C)cs1
2. O=C(OCCN(C1=NS(=O)(=O)c2ccccc21)c1ccc(Cl)cc1)c1ccco1
3. O=C(CSc1nc2ccccc2c(=O)n1NC(=O)c1ccccc1)c1ccc(Cl)cc1
4. Clc1ccc2[nH]c3c(N4CCC5(CC4)OCCO5)ncnc3c2c1

Result:
1. 24.7
2. 9
3. 1.57
4. 2.41

* * *

molecular target: recombinant WT VCP (Mus musculus); construct: in the full-length recombinant VCP; His (N); made in house; host or cells: Escherichia coli BL21-CodonPlus (DE3)-RIL; assay: MESG-PNP (EnzCheck) phosphate release ATPase assay, WT VCP; format: biochemical; details: 25 μM activator, versus DMSO
reported metric: increase in kcat

mol=Clc1ccc2[nH]c3c(N4CCC5(CC4)OCCO5)ncnc3c2c1 result="more than 50%"
mol=O=C(OCCN(C1=NS(=O)(=O)c2ccccc21)c1ccc(Cl)cc1)c1ccco1 result="more than 50%"
mol=COCCNC(=O)NC(=O)COC(=O)c1cc([N+](=O)[O-])ccc1Sc1nc(C)cs1 result=100%

* * *

molecular target: recombinant WT VCP (Mus musculus, UniProt Q01853); construct: in the full-length recombinant VCP; His (N); made in house; host or cells: Escherichia coli BL21-CodonPlus (DE3)-RIL; assay: Kinase-Glo ATPase assay, recombinant WT VCP; format: biochemical; conditions: maximum, WT VCP without UN
reported metric: increase of VCP activity (%)
Answers are plain numbers, in %.

The following compounds have reported results that may help.
mol=O=C(OCCN(C1=NS(=O)(=O)c2ccccc21)c1ccc(Cl)cc1)c1ccco1 assayed_target="recombinant WT VCP (Mus musculus, UniProt Q01853)" value_units=% numeric_result=104
mol=Clc1ccc2[nH]c3c(N4CCC5(CC4)OCCO5)ncnc3c2c1 assayed_target="recombinant WT VCP (Mus musculus, UniProt Q01853)" value_units=% numeric_result=50
mol=O=C(CSc1nc2ccccc2c(=O)n1NC(=O)c1ccccc1)c1ccc(Cl)cc1 assayed_target="recombinant WT VCP (Mus musculus, UniProt Q01853)" value_units=% numeric_result=39

Problem: Param item = `COCCNC(=O)NC(=O)COC(=O)c1cc([N+](=O)[O-])ccc1Sc1nc(C)cs1` ; retrieve measured increase of VCP activity.
Result: 97

* * *

molecular target: WT VCP + Ufd1/Nploc4 (Mus musculus, UniProt Q01853); construct: in the full-length recombinant VCP; His (N); UFD1 and NPLOC4: E. coli (DE3), purified by the MD Anderson core); assay: Kinase-Glo ATPase assay, WT VCP with UFD1/NPLOC4 (UN); conditions: WT VCP + Ufd1/Nploc4, 1:1 molar ratio
Sequence (Q01853 whole entry): as above
Sequence (Q92890 whole entry partner): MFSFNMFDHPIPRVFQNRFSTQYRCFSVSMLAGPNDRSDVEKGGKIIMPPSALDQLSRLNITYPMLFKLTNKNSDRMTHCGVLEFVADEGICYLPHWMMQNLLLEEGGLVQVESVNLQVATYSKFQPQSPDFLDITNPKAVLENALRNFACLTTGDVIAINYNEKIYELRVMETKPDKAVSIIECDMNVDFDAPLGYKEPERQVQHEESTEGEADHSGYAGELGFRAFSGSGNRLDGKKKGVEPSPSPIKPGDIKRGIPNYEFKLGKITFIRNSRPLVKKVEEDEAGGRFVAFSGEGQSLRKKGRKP
Sequence (Q8TAT6 whole entry partner): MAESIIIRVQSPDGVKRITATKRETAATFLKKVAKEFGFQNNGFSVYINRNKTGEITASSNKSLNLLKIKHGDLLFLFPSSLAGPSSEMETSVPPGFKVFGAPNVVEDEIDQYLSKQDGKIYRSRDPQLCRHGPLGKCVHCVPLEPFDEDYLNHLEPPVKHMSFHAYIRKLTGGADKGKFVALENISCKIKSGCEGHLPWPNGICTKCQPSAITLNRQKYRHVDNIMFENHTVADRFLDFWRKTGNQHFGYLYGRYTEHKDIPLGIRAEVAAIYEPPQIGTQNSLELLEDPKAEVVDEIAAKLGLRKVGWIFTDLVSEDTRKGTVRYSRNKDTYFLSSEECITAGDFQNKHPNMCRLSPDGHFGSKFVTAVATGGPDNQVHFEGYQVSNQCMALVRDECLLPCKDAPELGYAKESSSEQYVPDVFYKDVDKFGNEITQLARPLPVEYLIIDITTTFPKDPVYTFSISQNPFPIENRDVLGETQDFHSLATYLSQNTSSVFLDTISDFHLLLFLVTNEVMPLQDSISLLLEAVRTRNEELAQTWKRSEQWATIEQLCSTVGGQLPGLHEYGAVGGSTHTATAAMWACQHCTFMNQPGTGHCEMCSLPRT
reported metric: EC50
Reply with the number, then its unit.

Solved cases below.
mol=O=C(OCCN(C1=NS(=O)(=O)c2ccccc21)c1ccc(Cl)cc1)c1ccco1 result="8.9 µM"
mol=O=C(CSc1nc2ccccc2c(=O)n1NC(=O)c1ccccc1)c1ccc(Cl)cc1 result="0.648 µM"
mol=Clc1ccc2[nH]c3c(N4CCC5(CC4)OCCO5)ncnc3c2c1 result="14.3 µM"

# ---- query compound ----
Problem: Query EC50 on WT VCP + Ufd1/Nploc4 (Mus musculus, UniProt Q01853) for `COCCNC(=O)NC(=O)COC(=O)c1cc([N+](=O)[O-])ccc1Sc1nc(C)cs1`
Result: 13.4 µM
